- Test system: MDA breast adenocarcinoma cell line
- METHOD_DESCRIPTION: MTT cytotoxicity assay, calumenin-depleted MDA cells
- Format: cell-based, human
- CONDITIONS: Table 3; calumenin-depleted MDA vs mock siRNA-transfected cells; NC = no change occurred
Please respond with reported IS: increased sensitivity to the particular drug for every item in the list.
Answers are plain numbers, in × IS.

### Prompt Recall the recorded IS: increased sensitivity to the particular drug for CC[C@]1(O)C[C@H]2CN(CCc3c([nH]c4ccccc34)[C@@](C(=O)OC)(c3cc4c(cc3OC)N(C=O)[C@H]3[C@@](O)(C(=O)OC)[C@H](OC(C)=O)[C@]5(CC)C=CCN6CC[C@]43[C@@H]65)C2)C1 with MDA breast adenocarcinoma cell line and state it.
### Response 3.8

### Prompt Recall the recorded IS: increased sensitivity to the particular drug for CC(=O)O[C@H]1C(=O)[C@@]2(C)[C@H]([C@H](OC(=O)c3ccccc3)[C@]3(O)C[C@H](OC(=O)[C@H](O)[C@@H](NC(=O)c4ccccc4)c4ccccc4)C(C)=C1C3(C)C)[C@]1(OC(C)=O)CO[C@@H]1C[C@@H]2O with MDA breast adenocarcinoma cell line and state it.
### Response 3.8

### Prompt Recall the recorded IS: increased sensitivity to the particular drug for COc1cccc2c1C(=O)c1c(O)c3c(c(O)c1C2=O)C[C@@](O)(C(=O)CO)C[C@@H]3O[C@H]1C[C@H](N)[C@H](O)[C@H](C)O1 with MDA breast adenocarcinoma cell line and state it.
### Response 2.4

# evaluate next
### Prompt Recall the recorded IS: increased sensitivity to the particular drug for O=C1c2c(O)ccc(O)c2C(=O)c2c(NCCNCCO)ccc(NCCNCCO)c21 with MDA breast adenocarcinoma cell line and state it.
### Response 6
